Test: Concentration of parent drug and metabolite AZ5104 in rat plasma
Type: in vivo
Experimental setup: po, adult male rats, intragastrically, 10 mg/kg, 0.25-24 hours
Description: Comparison of the concentration of the metabolite AZ5104 in rats' body plasma of the pyrimidine compounds according to the present invention and AZD9291 Briefly, AZD9291 or the compound 49.(HCl)n of Example 49 or the compound 104.(MsOH) of Example 104 were administered intragastrically to 200-220 g of adult male rats at amount of 10 mg/kg. Each administration group had two to three rats. […] The concentration of parent drug and metabolite in plasma sample was analyzed by LC/MS.
Structures can show the parent of a compound that is named as a salt.
Measure name: AUC (µM·h)

Molecule	AUC (µM·h)
C=CC(=O)Nc1cc(Nc2nccc(-c3cn(S(C)(=O)=O)c4ccccc34)n2)c(OC)cc1N(C)CCN(C)C [49. (HCl)n]	0.91

(a) C=CC(=O)Nc1cc(Nc2nccc(-c3cn(CC(F)(F)F)c4ccccc34)n2)c(OC)cc1N(C)CCN(C)C [104. (MsOH)2]
(b) C=CC(=O)Nc1cc(Nc2nccc(-c3cn(C)c4ccccc34)n2)c(OC)cc1N(C)CCN(C)C [AZD9291, reference compound]
Two entries are listed, a and b . Which one carries the higher AUC? Mark your answer with the label of the selected entry.
a

Reference source: patent US11498921B1
